# tested-system: recombinant human IL-21 (rhIL-21) (human, UniProt Q9HBE4 30-162, limits assumed)
# Sequence (Q9HBE4 30-162 limits assumed): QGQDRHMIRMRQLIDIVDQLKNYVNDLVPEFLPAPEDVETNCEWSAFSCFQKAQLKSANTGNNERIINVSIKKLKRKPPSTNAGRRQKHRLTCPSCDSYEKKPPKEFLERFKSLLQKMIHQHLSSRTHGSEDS
# experiment-description: cell-based or functional assay
metric: % pSTAT3+ Jurkat cells, 0.1 nM rhIL-21 + 6.3171 nM antibody (%)
Give bare numbers, in %.

Here are 2 binders together with their reported answers.
FYP014 (antibody, human IgG1, V domains shown, human IgG1; also called EP3103813A1 clone 366.328.10.63) VH: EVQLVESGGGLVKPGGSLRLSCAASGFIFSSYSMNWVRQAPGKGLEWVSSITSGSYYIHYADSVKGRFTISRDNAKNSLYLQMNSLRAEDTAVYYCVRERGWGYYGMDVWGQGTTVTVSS VL: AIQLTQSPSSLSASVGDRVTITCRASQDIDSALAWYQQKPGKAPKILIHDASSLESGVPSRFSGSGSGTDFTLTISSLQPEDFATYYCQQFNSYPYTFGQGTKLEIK | 3.99
LKK631 (antibody, human IgG1, V domains shown) VH: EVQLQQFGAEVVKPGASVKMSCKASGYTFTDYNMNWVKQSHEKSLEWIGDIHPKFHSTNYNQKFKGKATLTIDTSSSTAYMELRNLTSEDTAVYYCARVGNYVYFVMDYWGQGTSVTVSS VL: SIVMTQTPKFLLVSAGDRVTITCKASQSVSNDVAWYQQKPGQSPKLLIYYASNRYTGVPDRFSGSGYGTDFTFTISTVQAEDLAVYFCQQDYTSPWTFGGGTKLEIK | 44.5

Read the next record carefully.
Exercise: Read off the recorded % pSTAT3+ Jurkat cells, 0.1 nM rhIL-21 + 6.3171 nM antibody for ZAP122 (antibody, human IgG1, V domains shown) VH: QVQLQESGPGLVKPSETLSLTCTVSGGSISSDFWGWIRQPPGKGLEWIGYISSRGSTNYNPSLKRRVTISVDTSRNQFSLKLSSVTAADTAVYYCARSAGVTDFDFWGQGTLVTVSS VL: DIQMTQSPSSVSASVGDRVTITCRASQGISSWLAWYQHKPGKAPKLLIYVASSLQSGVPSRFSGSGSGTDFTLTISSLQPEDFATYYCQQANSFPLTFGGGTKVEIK
Key: 8.64

Reference source for all entries: patent EP4671273A1
